test system: SNB-75 CNS; test: NCI-60 one-dose screen, 48 h; conditions: 10 µM unless noted
The panel holds about 83,000 compounds, 20% with a hit somewhere; the sample as a whole holds those more often. Activity calls are given as the source filed them. The calls were made as follows: active = growth percent below 10; inactive = the rest.
Outcomes: active, inactive

{"compound": "COc1ccc2c3c([nH]c2c1)C(=O)c1nc(C)ccc1C3=O", "assignedCategory": "active"}
{"compound": "CC(C)NC1CCC(Nc2ccnc3cc(Cl)ccc23)CC1 (stereo unspecified)", "assignedCategory": "inactive"}
{"compound": "COc1ccc(/C=C2\\COc3ccc(O)cc3C2=O)c(OC)c1OC", "assignedCategory": "inactive"}
{"compound": "CC(=O)Cc1nsc(NC(=O)c2cc(-c3cc(Cl)cc(Cl)c3)oc2C)n1", "assignedCategory": "inactive"}
{"compound": "O=C(NCCCN1CCOCC1)c1cccc(N2C(=O)/C(=C/c3ccc(F)cc3)SC2=S)c1", "assignedCategory": "inactive"}
{"compound": "C[C@@H]1CCC[C@H]1CC(N)C(=O)O (stereo partly specified)", "assignedCategory": "inactive"}
{"compound": "C=C(C)[C@@H]1CC[C@]2(C(=O)NCCNCCN)CC[C@]3(C)[C@H](CC[C@@H]4[C@@]5(C)C/C(=C/c6ccncc6)C(=O)C(C)(C)[C@@H]5CC[C@]43C)[C@@H]12", "assignedCategory": "inactive"}
{"compound": "O=C1c2c(c3c4ccc(Br)cc4oc3c3[nH]c4ccccc4c23)C(=O)N1O", "assignedCategory": "active"}
{"compound": "COc1ccc(C(=O)C2C(c3ccc(OC)cc3)CN(C)C23C(=O)Nc2ccccc23)cc1 (stereo unspecified)", "assignedCategory": "inactive"}
{"compound": "Fc1cc2c(cc1Cl)N(c1ncnc3ccc(-c4cnc5[nH]ncc5c4)cc13)CC2", "assignedCategory": "inactive"}
{"compound": "Cc1c(-c2nc3ccc(F)cc3c(=O)[nH]2)c2ccccc2n1C", "assignedCategory": "active"}
{"compound": "COc1cc(-c2nc(SCCC(C)C)nc(Nc3ccccc3Cl)c2C#N)cc(OC)c1OC", "assignedCategory": "inactive"}
{"compound": "CCCCCCCCCCCCCCCCCCOc1ccccc1CC(=O)OCC[N+]1(C)CCCC1", "assignedCategory": "active"}
{"compound": "O=C(O)CCCN1C(=O)/C(=C/C(Cl)=C/c2ccccc2)SC1=S", "assignedCategory": "inactive"}
{"compound": "O=S(=O)(Nc1ccc(Cl)cc1)c1ccc(-c2cnc(C3CC3)o2)cc1", "assignedCategory": "active"}
{"compound": "COc1ccc(-c2nnc3n(C)c(=O)c4ccccc4n23)cc1N", "assignedCategory": "active"}
{"compound": "CC1Cc2c(Cl)ncnc2N(C)c2ccc(F)cc21 (stereo unspecified)", "assignedCategory": "inactive"}
{"compound": "CCCCC(=O)c1ccco1", "assignedCategory": "inactive"}
{"compound": "Cc1noc(C)c1C(=O)OCc1coc2ccccc2c1=O", "assignedCategory": "inactive"}
{"compound": "OCCNCCCOc1ccc2ncnc(Nc3ccc(Oc4cccc(C(F)(F)F)c4)c(Cl)c3)c2c1", "assignedCategory": "inactive"}
{"compound": "N#CC1C=CN(CC(N)=O)c2ccc3cccnc3c21 (stereo unspecified)", "assignedCategory": "inactive"}

---

tested on: MDA-MB-435 melanoma; test: NCI-60 one-dose screen, 48 h (100 = growth as untreated, 0 = no growth, -100 = all killed); settings: 10 µM unless noted
Compounds without any hit were thinned out: in the full panel of roughly 83,000, 20% have a hit. Active and inactive are the calls of the source. The calls were made as follows: active = growth percent below 10; inactive = the rest.
readoutKind: growth

{"molecule": "O=S(=O)(NCCNc1nccc(-c2c(-c3cccc(F)c3)nc3occn23)n1)c1ccc(Br)cc1", "readoutKind": "growth", "assayResult": "68.5% (inactive)"}
{"molecule": "CC(C)(C)n1cc(-c2ccnc(NCCNS(=O)(=O)c3cccc4ccccc34)c2)c(-c2cccc(F)c2)n1", "readoutKind": "growth", "assayResult": "-31.8% (active)"}
{"molecule": "CC1Cc2c(Cl)ncnc2N(C)c2ccc(F)cc21 (centres undefined)", "readoutKind": "growth", "assayResult": "102% (inactive)"}
{"molecule": "C#CCn1cnc2c(Nc3cccc(NC(=O)C=C)c3)ncnc21", "readoutKind": "growth", "assayResult": "82.6% (inactive)"}
{"molecule": "CCN(CC)CCOc1ccc(-c2c(-c3ccccc3)c(=O)oc3ccccc23)cc1", "readoutKind": "growth", "assayResult": "100% (inactive)"}
{"molecule": "O=C1Nc2ccc(I)cc2C1=O", "readoutKind": "growth", "assayResult": "103% (inactive)"}
{"molecule": "O=C1/C(=C/c2ccc(F)cc2)COc2ccc(O)cc21", "readoutKind": "growth", "assayResult": "62.9% (inactive)"}
{"molecule": "C#CCOc1cccc(Nc2ncnc3ccc(NC(=O)CCl)cc23)c1", "readoutKind": "growth", "assayResult": "-2.66% (active)"}
{"molecule": "CCN(CC)CCSc1nc(-c2ccccc2)c(C#N)c(=O)[nH]1", "readoutKind": "growth", "assayResult": "103% (inactive)"}
{"molecule": "Cn1c(O)c(C=NCCN=Cc2c(O)n(C)c(=O)n(C)c2=O)c(=O)n(C)c1=O", "readoutKind": "growth", "assayResult": "93.7% (inactive)"}
{"molecule": "N#CC1=C(c2ccc(Cl)cc2)Nc2c(c(-c3ccc(Cl)cc3)nn2-c2ccccc2)C12C(=O)Nc1ccc(Cl)cc12 (centres undefined)", "readoutKind": "growth", "assayResult": "55.1% (inactive)"}
{"molecule": "CN([O-])c1nc(N(C)[O-])nc(N2CCOCC2)n1.CN([O-])c1nc(N(C)[OH2+])nc(N2CCOCC2)n1.[Fe+3]", "readoutKind": "growth", "assayResult": "-30.5% [100 µM] (active)"}
{"molecule": "O=c1oc2c(cnc3ccccc32)cc1-c1ccsc1", "readoutKind": "growth", "assayResult": "102% (inactive)"}
{"molecule": "COC(=O)c1cc(-c2ccc(S(C)(=O)=O)cc2)[nH]c1N/N=C/c1c(Cl)cccc1Cl", "readoutKind": "growth", "assayResult": "-69.7% (active)"}
{"molecule": "CCc1n(Cc2ccc3ccccc3c2)cc[n+]1Cc1ccc2ccccc2c1", "readoutKind": "growth", "assayResult": "-22.1% (active)"}
{"molecule": "COc1ccc(-c2csc(N(C(=O)N3CCN(c4cc5c(cc4F)c(=O)c(C(=O)O)cn5C4CC4)CC3)c3ccccc3)n2)cc1", "readoutKind": "growth", "assayResult": "16.9% (inactive)"}
{"molecule": "O=C(CN1C(=O)CCC1=O)Nc1ncc(Cc2ccc(F)cc2)s1", "readoutKind": "growth", "assayResult": "102% (inactive)"}
{"molecule": "O=C(Nc1cccnc1Nc1ccc(F)cc1)c1cn(Cc2cccc(Oc3ccccc3)c2)nn1", "readoutKind": "growth", "assayResult": "-32.4% (active)"}
{"molecule": "Cc1ccc(Cc2cnc(NC(=O)c3cc(Br)cs3)s2)cc1", "readoutKind": "growth", "assayResult": "-16.5% (active)"}
{"molecule": "CC12CCC3c4ccccc4CCC3(CO1)C2 (centres undefined)", "readoutKind": "growth", "assayResult": "107% (inactive)"}
{"molecule": "CC1(c2ccccc2O)NN=C(/N=C/c2cccc([N+](=O)[O-])c2)N1C(Cc1c[nH]c2ccccc12)C(=O)O (centres undefined)", "readoutKind": "growth", "assayResult": "106% (inactive)"}
{"molecule": "COc1ccc(C2c3sc4c(F)cccc4c3Oc3nc[nH]c(=O)c32)cc1 (centres undefined)", "readoutKind": "growth", "assayResult": "82.1% (inactive)"}
{"molecule": "C1=CN2CC(c3ccccc3)=NNC2c2ccccc21 (centres undefined)", "readoutKind": "growth", "assayResult": "96.5% (inactive)"}
{"molecule": "CCN(CC)c1nc(SCc2ccccc2Cl)ncc1C", "readoutKind": "growth", "assayResult": "108% (inactive)"}
{"molecule": "CN(C)C1CCN(Cc2ccc(NC(=O)c3cncc(C#Cc4cnc(N)c5ncccc45)c3)cc2C(F)(F)F)CC1", "readoutKind": "growth", "assayResult": "-2.09% (active)"}
{"molecule": "CC(=O)N(N=Nc1ccccc1)c1cccc2ccccc12", "readoutKind": "growth", "assayResult": "97.8% (inactive)"}
{"molecule": "COC(=O)[C@H]1CCCN1C[C@@H](O)CN1C(=O)/C(=C\\c2cc(OC)c(OC)c(OC)c2)c2ccccc21", "readoutKind": "growth", "assayResult": "96.5% (inactive)"}
{"molecule": "C=C1C(=O)O[C@H]2[C@H]1CC/C(COC(=O)N[C@H]1C[C@H](O[C@H]3C[C@](O)(C(=O)CO)Cc4c(O)c5c(c(O)c43)C(=O)c3c(OC)cccc3C5=O)O[C@@H](C)[C@H]1O)=C\\CC[C@@]1(C)O[C@@H]21", "readoutKind": "growth", "assayResult": "66% (inactive)"}
{"molecule": "O=C1N(Cc2ccccc2Cl)c2ccccc2C12NN=C(c1cccc(Cl)c1)S2 (centres undefined)", "readoutKind": "growth", "assayResult": "2.22% (active)"}
{"molecule": "COc1ccc(CC(C#N)c2cc3ccccc3[nH]2)cc1 (centres undefined)", "readoutKind": "growth", "assayResult": "82.2% (inactive)"}
{"molecule": "COc1ccc(C(c2cc(OC)c(OC)c(OC)c2)N2CCN(c3ccccc3)CC2)cc1 (centres undefined)", "readoutKind": "growth", "assayResult": "9.02% (active)"}
{"molecule": "Brc1ccc2[nH]cc(-c3nonc3-c3c[nH]c4ccccc34)c2c1", "readoutKind": "growth", "assayResult": "47.1% (inactive)"}
{"molecule": "O=C(CSc1nnc2n1S(=O)(=O)c1ccccc1N2c1ccccc1)Nc1nc2ccc(F)cc2s1", "readoutKind": "growth", "assayResult": "101% (inactive)"}
{"molecule": "N=C(N)c1ccc(-c2ccc(-c3ccc(Cl)cc3)s2)nc1", "readoutKind": "growth", "assayResult": "-15% (active)"}
{"molecule": "O=S(=O)(Nc1ccc(Cl)cc1)c1ccc(-c2cnc(C3CC3)o2)cc1", "readoutKind": "growth", "assayResult": "-3.04% (active)"}
{"molecule": "Cc1ccc(S(=O)(=O)N2CCCC2CO)cc1 (centres undefined)", "readoutKind": "growth", "assayResult": "111% (inactive)"}
{"molecule": "COc1cc(-c2nc(SCCC(C)C)nc(Nc3ccccc3Cl)c2C#N)cc(OC)c1OC", "readoutKind": "growth", "assayResult": "96.6% (inactive)"}
{"molecule": "CC[C@]12C=CCN3CC[C@@]4(c5cc(NC(=O)CCC(=O)OCc6cn(Cc7ccc(F)cc7)nn6)c(OC)cc5N(C)[C@H]4[C@@](O)(C(=O)OC)[C@@H]1OC(C)=O)[C@@H]32", "readoutKind": "growth", "assayResult": "101% (inactive)"}
{"molecule": "O=C(Cc1ccccc1)Nc1nc(O)c(/C=C2\\C(=O)C=Cc3ccccc32)s1", "readoutKind": "growth", "assayResult": "101% (inactive)"}
